Where do the numbers come from? From patent US8119629B2.

EXPERIMENTAL_SYSTEM: rat GABAA α2β2γ2 Receptors (Rattus norvegicus)
Construct: expressed in transfected cells; pIRES Neo2 / Hygro2 / Puro2 vectors
ASSAY_METHOD_TEXT: PatchXpress 7000A automated parallel patch-clamp: potentiation of GABA EC20 current in HEK293 cells
Format: cell-based
CONDITION_DESCRIPTION: percent increase in mean GABA EC20 current response; HEK293 cells stably expressing rat GABAA α2β2γ2; voltage-clamped at −60 mV; read-out: GABAA α2 EP EMAX (%)
Counter-ions that a name gives are not always drawn.
MEASUREMENT_LABEL: Emax

Worked set:
MOLECULE	Emax
C#Cc1ccc2c(c1)C(c1ccccc1)=NCc1c(C(=O)NC(CC)COC)ncn1-2 (centres unmarked)	200 to 300%
C#Cc1ccc2c(c1)C(c1ccccc1)=NCc1c(C(=O)NCCOC)ncn1-2 [Example 4, Dihydrochloride]	> 500%
C#Cc1ccc2c(c1)C(c1ccccn1)=NCc1c(C(=O)NCCOC)ncn1-2	200 to 300%
C#Cc1ccc2c(c1)C(c1ccccc1)=NCc1c(C(=O)NC[C@@H](C)O)ncn1-2	200 to 300%

[in] Recorded Emax for C#Cc1ccc2c(c1)C(c1ccccc1)=NCc1c(C(=O)NCCCCCO)ncn1-2 [Example 30, dihydrochloride] , please?
[out] 300 to 400%

====

Attribute: Emax
EXPERIMENTAL_SYSTEM: rat GABAA α2β2γ2 Receptors (Rattus norvegicus, UniProt P23576)
Construct: expressed in transfected cells; pIRES Neo2 / Hygro2 / Puro2 vectors
Sequence (P23576 29-451): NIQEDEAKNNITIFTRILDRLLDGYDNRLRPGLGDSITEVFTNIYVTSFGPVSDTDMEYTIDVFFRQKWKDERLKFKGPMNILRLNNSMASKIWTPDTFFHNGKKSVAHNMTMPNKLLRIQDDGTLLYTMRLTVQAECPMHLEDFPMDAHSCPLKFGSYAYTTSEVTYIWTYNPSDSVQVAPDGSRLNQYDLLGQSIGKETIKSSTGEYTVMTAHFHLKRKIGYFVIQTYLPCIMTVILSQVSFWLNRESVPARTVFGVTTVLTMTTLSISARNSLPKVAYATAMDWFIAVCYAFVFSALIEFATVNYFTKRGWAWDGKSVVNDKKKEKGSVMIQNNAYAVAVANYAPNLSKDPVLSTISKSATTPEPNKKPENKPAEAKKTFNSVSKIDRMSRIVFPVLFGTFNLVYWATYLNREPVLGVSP
Sequence (P63138 25-474 partner limits assumed): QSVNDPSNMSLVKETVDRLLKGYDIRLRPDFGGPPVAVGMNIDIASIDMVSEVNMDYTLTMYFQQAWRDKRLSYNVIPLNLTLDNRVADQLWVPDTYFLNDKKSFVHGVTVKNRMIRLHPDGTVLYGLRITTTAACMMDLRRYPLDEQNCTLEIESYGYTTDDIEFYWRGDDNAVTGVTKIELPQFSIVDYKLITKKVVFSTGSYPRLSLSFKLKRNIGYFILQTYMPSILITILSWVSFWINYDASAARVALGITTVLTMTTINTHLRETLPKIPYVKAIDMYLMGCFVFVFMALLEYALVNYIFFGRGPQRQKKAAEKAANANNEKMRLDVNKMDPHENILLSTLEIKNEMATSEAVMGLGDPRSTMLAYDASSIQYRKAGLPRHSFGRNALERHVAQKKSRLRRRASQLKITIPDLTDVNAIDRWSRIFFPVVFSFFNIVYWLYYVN
Sequence (P18508 39-466 partner): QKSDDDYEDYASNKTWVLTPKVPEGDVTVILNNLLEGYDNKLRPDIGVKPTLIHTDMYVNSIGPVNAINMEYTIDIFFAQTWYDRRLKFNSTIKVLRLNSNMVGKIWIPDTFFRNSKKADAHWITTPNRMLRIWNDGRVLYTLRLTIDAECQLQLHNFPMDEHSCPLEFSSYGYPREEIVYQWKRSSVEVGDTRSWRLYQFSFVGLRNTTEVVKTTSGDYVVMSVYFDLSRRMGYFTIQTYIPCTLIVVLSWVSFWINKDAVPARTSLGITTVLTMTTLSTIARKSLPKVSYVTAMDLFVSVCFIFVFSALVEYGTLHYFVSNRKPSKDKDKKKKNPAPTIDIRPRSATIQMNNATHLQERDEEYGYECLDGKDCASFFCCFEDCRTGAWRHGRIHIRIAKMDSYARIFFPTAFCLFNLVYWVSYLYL
ASSAY_METHOD_TEXT: PatchXpress 7000A automated parallel patch-clamp: potentiation of GABA EC20 current in HEK293 cells
Format: cell-based
CONDITION_DESCRIPTION: percent increase in mean GABA EC20 current response; HEK293 cells stably expressing rat GABAA α2β2γ2; voltage-clamped at −60 mV; read-out: GABAA α2 EP EMAX (%)

C#Cc1ccc2c(c1)C(c1ccccc1)=NCc1c(C(=O)NCCOCCC)ncn1-2 400 to 500%
C#Cc1ccc2c(c1)C(c1ccccc1)=NCc1c(C(=O)NCCN(C)C)ncn1-2 300 to 400%
C#Cc1ccc2c(c1)C(c1ccccc1)=NCc1c(C(=O)NCCO)ncn1-2 400 to 500%

Turning now to a further molecule:
[in] Need Emax, item `C#Cc1ccc2c(c1)C(c1ccccc1)=NCc1c(C(=O)N3CCOCC3)ncn1-2`
[out] 400 to 500%
